B1: HDV Ribozyme (parent)
chain: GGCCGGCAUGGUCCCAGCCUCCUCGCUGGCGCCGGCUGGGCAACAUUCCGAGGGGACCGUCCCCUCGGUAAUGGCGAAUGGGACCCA

variants of: B1; assay: self-cleavage, relative activity (ratio to wild type); higher = more cleavage; co-transcriptional
Parameter measured: self-cleavage
Number only, please.

Record excerpt, results attached:
- Seq string: "GGCCGGCAUGGUCCCAGCCUCCUCGCUAGCGCCGGCUGGGCAACCUUCCGAGGGGACCGUCCCCUCGGUAAUGGCGAAUGGGACCCA"
  self-cleavage: 0.0744
- Seq string: "GGCCGGCAUGGUCCCAGCCUCCUCGCUGGCGCCGGCUGGGCAACAUUCCGCGGGGACCGUCCCCUCGGUAAUGGCUAAUGGGACCCA"
  self-cleavage: 1.11
- Seq string: "GGCAGGCAUGGUCCCAGCCUCCUCGCUGGCGCCGGCUCGGCAACAUUCCGAGGGGACCGUCCCCUCGGUAAUGGCGAAUGGGACCCA"
  self-cleavage: 0

Now look at this entry.
Query: self-cleavage; subject: GGUCGGCAUGGUCCCAGCCUCCUCGCUGGCGCCGGCUGGGCAACAUUCCGAGGGGACCGUCCCCUUGGUAAUGGCGAAUGGGACCCA
0.753
